Tested on: Staphylococcus sp.
Test: In vitro antibacterial evaluation: minimum inhibitory concentration (MIC), broth dilution method
Type: cell-based
Conditions: Coagulase Negative Staphylococcus (GC 6257); 18 hours at 35° C.
Numbered stars: 1 amine (or outer) side, 2 acyl side, 3 side chain; on linkers, the order of the positions; unused ones are H or OH. Square brackets hold non-standard residues; d marks the D form. Peptide text beside a SMILES is read from it. ξ: configuration not given here. X3 = CC1(C)OCC2OC(N3C(=N)NCC3C(O)C(N[*:1])C(=O)[*:2])C3OC(C)(C)OC3C2O1; ξEnduracididine(βξ-OH,4'ξ) = N=C1NCC(C(O)C(N)C(=O)O)N1; ξPhe(βξ-Me) = CC(c1ccccc1)C(N)C(=O)O
endpoint: MIC Coagulase Negative Staphylococcus (GC 6257) (µg/mL)

# compound, u, op, recorded_result
measured = [
    ("COc1ccc(COCC2OC(OC3C(CO)OC(Oc4ccc(CC5NC(=O)C(C(C)c6ccccc6)NC(=O)CNC(=O)C(CO)NC(=O)C(C(O)C6CNC(=N)N6C6OC(CO)C(O)C(O)C6O)NC(=O)C(C(O)C6CNC(=N)N6)NC5=O)cc4)C(O)C3O)C(O)C(O)C2O)c2ccccc12 (stereo not shown) [Example 240]", "µg/mL", "=", 2),
    ("CC(c1ccccc1)C1NC(=O)CNC(=O)C(CO)NC(=O)C(C(O)C2CNC(=N)N2C2OC(CO)C(O)C(O)C2O)NC(=O)C(C(O)C2CNC(=N)N2)NC(=O)C(Cc2ccc(OC3OC(CO)C(OC4OC(CO)C(O)C(OCc5ccc(OCc6ccccc6)cc5)C4O)C(O)C3O)cc2)NC1=O (stereo not shown) [Example 231c]", "µg/mL", "=", 0.5),
    ("CC(c1ccccc1)C1NC(=O)CNC(=O)C(CO)NC(=O)C(C(O)C2CNC(=N)N2C2OC3COC(C)(C)OC3C3OC(C)(C)OC32)NC(=O)C(C(O)C2CNC(=N)N2)NC(=O)C(Cc2ccc(O)cc2)NC1=O (stereo not drawn) [Example 247] (cyclo(G[ξPhe(βξ-Me)]Y[ξEnduracididine(βξ-OH,4'ξ)][X3]S); configuration not given here)", "µg/mL", ">", 64),
    ("COc1ccc(COCC2OC(OC3C(CO)OC(Oc4ccc(CC5NC(=O)C(C(C)c6ccccc6)NC(=O)CNC(=O)C(CO)NC(=O)C(C(O)C6CNC(=N)N6C6OC(CO)C(O)C(O)C6O)NC(=O)C(C(O)C6CNC(=N)N6)NC5=O)cc4)C(O)C3O)C(O)C(O)C2O)cc1 (stereo not shown) [Example 232]", "µg/mL", "=", 2),
]
